System: EKVX NSCLC
Assay comment: NCI-60 one-dose screen, 48 h (100 = growth as untreated, 0 = no growth, -100 = all killed)
Recorded conditions: 10 µM unless noted
This is part of a sample that, as a whole, favours compounds with a hit. Of some 83,000 tested, about 20% had one in any assay.
Measured growth accompanies every entry in the list below.
Report the value in % with no unit label.

INSERT INTO assay_data (molecule, tested_on, measured_number) VALUES
  ('Clc1ccc(C(Cn2ccnc2)OCc2ccsc2Cl)c(Cl)c1 (stereo not given)', 'EKVX NSCLC', 48.4),
  ('CN1CCN(CC(=O)Nc2ccc(-c3nc4ccccc4s3)cc2)CC1', 'EKVX NSCLC', 83.7),
  ('CC1CCC(n2cnc3c(Cl)ncnc32)O1 (stereo not given)', 'EKVX NSCLC', 94.5);

Challenge: Recorded growth of O=C(c1ccccc1)C(c1ccccc1)N1CCOCC1 (stereo not given) , please.
Response given: 99

Challenge: Next molecule: COc1cc2c3c(c1)nc(C)n3CCC2
Response given: 95.5

Challenge: Next molecule: CCc1nc2ccc(Cc3ccc(C(=O)NO)cc3)cc2c(=O)n1CCc1ccccc1
Response given: -23.3

Challenge: Next molecule: CS(=O)(=O)N1CCc2c(-c3cnc(N)nc3)nc(N3CCOCC3)nc21
Response given: 10.2

Challenge: Next molecule: OCCNC(=S)Nc1ccc(-c2nc(N3C[C@H]4CC[C@@H](C3)O4)c3cccn3n2)cc1
Response given: 1.72

Challenge: Next molecule: C=C1C(=O)O[C@H]2[C@H]1CC/C(CNC(=O)c1cc3cc(OC)ccc3[nH]1)=C\CC[C@@]1(C)O[C@@H]21
Response given: -55.9

Challenge: Next molecule: Cc1c(CN2CCN(C(=O)[C@H](C)O)CC2)sc2c(N3CCOCC3)nc(-c3cnc(N)nc3)nc12
Response given: 1.75

The reported numbers originate from PubChem BioAssay (NCI).
